Task for the reader: assign each of the following compounds its reported viability, T/C.
Test system: 596521-263-R-J1-PDC complex spheroid growth
experiment-summary: Anticancer human tumor 596521-263-R-J1-PDC patient-derived soft tissue sarcoma cell line growth inhibition [Asc]
recorded-conditions: second compound 0.316 µM; first compound 0.0316 µM; stronger effect = lower value
The reply should be a number in %, with the unit left off.

GET /value?item= O=C(c1ccc(F)c(F)c1Nc1ccc(I)cc1F)N1CC(O)([C@@H]2CCCCN2)C1 + Cc1c(S(C)(=O)=O)c(-c2cc(F)cc(N3CCN(c4ccc(NS(=O)(=O)c5ccc(NC(CCN6CCC(C(=O)OCCCP(=O)(O)O)CC6)CSc6ccccc6)c(S(=O)(=O)C(F)(F)F)c5)cc4)CC3)c2)c(-c2ccc(Cl)cc2)n1C(C)C &field=viability, T/C returns 87.1

For reference, reported viability, T/C for O=C(c1cc(Cc2n[nH]c(=O)c3ccccc23)ccc1F)N1CCN(C(=O)C2CC2)CC1 + Cc1c(S(C)(=O)=O)c(-c2cc(F)cc(N3CCN(c4ccc(NS(=O)(=O)c5ccc(NC(CCN6CCC(C(=O)OCCCP(=O)(O)O)CC6)CSc6ccccc6)c(S(=O)(=O)C(F)(F)F)c5)cc4)CC3)c2)c(-c2ccc(Cl)cc2)n1C(C)C stands at 94

Entry NC1CCC(NC2CC2c2ccccc2)CC1 (stereo not drawn) + Cc1c(S(C)(=O)=O)c(-c2cc(F)cc(N3CCN(c4ccc(NS(=O)(=O)c5ccc(NC(CCN6CCC(C(=O)OCCCP(=O)(O)O)CC6)CSc6ccccc6)c(S(=O)(=O)C(F)(F)F)c5)cc4)CC3)c2)c(-c2ccc(Cl)cc2)n1C(C)C , viability, T/C reported as 76.7

###

Provide the reported pIC50 of each item.
Test system: 596521-263-R-J1-PDC complex spheroid growth
experiment-summary: Anticancer human tumor 596521-263-R-J1-PDC cell line growth inhibition [Asc];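 note: spheroids exposed to compounds for 7 days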
recorded-conditions: curve of first compound; second compound 0.949 µM
pIC50: −log10 of the molar value.

Query Cc1nc(N2CCC3(CC2)COC(C)C3N)c(CO)nc1Sc1ccnc(N)c1Cl (stereo not drawn) + CCN1C(C(=O)NC23CCC(C(=O)O)(CC2)CC3)C(c2cccc(Cl)c2F)C2(C(=O)Nc3cc(Cl)ccc32)C12CCCCC2 yields pIC50 of < 5.52

What the record says about CCN1CCN(Cc2ccc(Nc3ncc(F)c(-c4cc(F)c5nc(C)n(C(C)C)c5c4)n3)nc2)CC1 + CCN1C(C(=O)NC23CCC(C(=O)O)(CC2)CC3)C(c2cccc(Cl)c2F)C2(C(=O)Nc3cc(Cl)ccc32)C12CCCCC2 : pIC50 is < 6.00

What the record says about C#Cc1c(F)ccc2cc(O)cc(-c3ncc4c(N5CC6CCC(C5)N6)nc(OCC56CCCN5CC(F)C6)nc4c3F)c12 (stereo not drawn) + CCN1C(C(=O)NC23CCC(C(=O)O)(CC2)CC3)C(c2cccc(Cl)c2F)C2(C(=O)Nc3cc(Cl)ccc32)C12CCCCC2 : pIC50 is < 5.00

###

Tested on: 596521-263-R-J1-PDC complex spheroid growth
experiment-summary: Anticancer human tumor 596521-263-R-J1-PDC cell line growth inhibition [Asc];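 note: spheroids exposed to compounds for 7 days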
recorded-conditions: second compound 3.16 µM; first compound 1 µM; stronger effect = lower value
Field: viability, T/C. Provide a value for each of the molecules that follow.
Number in %, nothing else.

viability, T/C value, target or system 596521-263-R-J1-PDC complex spheroid growth, for COc1c(OCCCN2CCOCC2)ccc2c3n(c(=NC(=O)c4cnc(N)nc4)nc12)CCN3 + Cc1c(S(C)(=O)=O)c(-c2cc(F)cc(N3CCN(c4ccc(NS(=O)(=O)c5ccc(NC(CCN6CCC(C(=O)OCCCP(=O)(O)O)CC6)CSc6ccccc6)c(S(=O)(=O)C(F)(F)F)c5)cc4)CC3)c2)c(-c2ccc(Cl)cc2)n1C(C)C : 18.5

Lab note: molecule C=CC(=O)N1CCN(c2nc(=O)n(-c3c(C)ccnc3C(C)C)c3nc(-c4c(O)cccc4F)c(F)cc23)C(C)C1 (stereo not drawn) + Cc1c(S(C)(=O)=O)c(-c2cc(F)cc(N3CCN(c4ccc(NS(=O)(=O)c5ccc(NC(CCN6CCC(C(=O)OCCCP(=O)(O)O)CC6)CSc6ccccc6)c(S(=O)(=O)C(F)(F)F)c5)cc4)CC3)c2)c(-c2ccc(Cl)cc2)n1C(C)C tested on 596521-263-R-J1-PDC complex spheroid growth; recorded viability, T/C was 63.4

Lab entry: 596521-263-R-J1-PDC complex spheroid growth assay, molecule O=C(c1ccc(F)c(F)c1Nc1ccc(I)cc1F)N1CC(O)([C@@H]2CCCCN2)C1 + Cc1c(S(C)(=O)=O)c(-c2cc(F)cc(N3CCN(c4ccc(NS(=O)(=O)c5ccc(NC(CCN6CCC(C(=O)OCCCP(=O)(O)O)CC6)CSc6ccccc6)c(S(=O)(=O)C(F)(F)F)c5)cc4)CC3)c2)c(-c2ccc(Cl)cc2)n1C(C)C , viability, T/C = 16.8

Summary: O=C(c1cc(Cc2n[nH]c(=O)c3ccccc23)ccc1F)N1CCN(C(=O)C2CC2)CC1 + Cc1c(S(C)(=O)=O)c(-c2cc(F)cc(N3CCN(c4ccc(NS(=O)(=O)c5ccc(NC(CCN6CCC(C(=O)OCCCP(=O)(O)O)CC6)CSc6ccccc6)c(S(=O)(=O)C(F)(F)F)c5)cc4)CC3)c2)c(-c2ccc(Cl)cc2)n1C(C)C , 596521-263-R-J1-PDC complex spheroid growth, viability, T/C = 56.5

The value of viability, T/C recorded for CCN1CCN(Cc2ccc(Nc3ncc(F)c(-c4cc(F)c5nc(C)n(C(C)C)c5c4)n3)nc2)CC1 + Cc1c(S(C)(=O)=O)c(-c2cc(F)cc(N3CCN(c4ccc(NS(=O)(=O)c5ccc(NC(CCN6CCC(C(=O)OCCCP(=O)(O)O)CC6)CSc6ccccc6)c(S(=O)(=O)C(F)(F)F)c5)cc4)CC3)c2)c(-c2ccc(Cl)cc2)n1C(C)C when tested on 596521-263-R-J1-PDC complex spheroid growth reads 66.4

viability, T/C on 596521-263-R-J1-PDC complex spheroid growth for C#Cc1c(F)ccc2cc(O)cc(-c3ncc4c(N5CC6CCC(C5)N6)nc(OCC56CCCN5CC(F)C6)nc4c3F)c12 (stereo not drawn) + Cc1c(S(C)(=O)=O)c(-c2cc(F)cc(N3CCN(c4ccc(NS(=O)(=O)c5ccc(NC(CCN6CCC(C(=O)OCCCP(=O)(O)O)CC6)CSc6ccccc6)c(S(=O)(=O)C(F)(F)F)c5)cc4)CC3)c2)c(-c2ccc(Cl)cc2)n1C(C)C is 57.1

Hey, 596521-263-R-J1-PDC complex spheroid growth data for C=C(F)C(=O)N1CCN(c2nc(OCC3CCCN3C)nc3c2CCN(c2cccc4cccc(Cl)c24)C3)CC1CC#N (stereo not drawn) + Cc1c(S(C)(=O)=O)c(-c2cc(F)cc(N3CCN(c4ccc(NS(=O)(=O)c5ccc(NC(CCN6CCC(C(=O)OCCCP(=O)(O)O)CC6)CSc6ccccc6)c(S(=O)(=O)C(F)(F)F)c5)cc4)CC3)c2)c(-c2ccc(Cl)cc2)n1C(C)C : viability, T/C came out at 50.5

Form field viability, T/C for item CNC(C)C(=O)NC1CN(S(=O)(=O)c2cccc(S(=O)(=O)N3CCC4CCC(C(=O)NC(c5ccccc5)c5ccccc5)N4C(=O)C(NC(=O)C(C)NC)C3)c2)CCC2CCC(C(=O)NC(c3ccccc3)c3ccccc3)N2C1=O (stereo not drawn) + Cc1c(S(C)(=O)=O)c(-c2cc(F)cc(N3CCN(c4ccc(NS(=O)(=O)c5ccc(NC(CCN6CCC(C(=O)OCCCP(=O)(O)O)CC6)CSc6ccccc6)c(S(=O)(=O)C(F)(F)F)c5)cc4)CC3)c2)c(-c2ccc(Cl)cc2)n1C(C)C on 596521-263-R-J1-PDC complex spheroid growth: 32.3
